# Test system: MCF7
# assayDetails: Growth inhibition in human MCF7 cells at 50 to 100 uM after 4 days by MTT assay
# Type: functional, cell-based
Calls of active or inactive are those of the source. No cut-off for these calls is given here.
reportedEndpoint: growth inhibition (GI)

Below, each entry is followed by its recorded growth inhibition (GI) result.
>  <cpdSmiles>
O=c1c(-c2ccc(O)cc2)c[nH]c2cc(O)cc(O)c12

>  <growth inhibition (GI)>
Active

$$$$
>  <cpdSmiles>
Cn1cc(-c2ccc(O)cc2)c(=O)c2c(O)cc(O)cc21

>  <growth inhibition (GI)>
Active

$$$$
>  <cpdSmiles>
CCCn1cc(-c2ccc(O)cc2)c(=O)c2ccccc21

>  <growth inhibition (GI)>
Active

$$$$
>  <cpdSmiles>
CCn1cc(-c2ccc(O)cc2)c(=O)c2c(O)cc(O)cc21

>  <growth inhibition (GI)>
Active

$$$$
>  <cpdSmiles>
CCn1cc(-c2ccc(O)cc2)c(=O)c2ccc(O)cc21

>  <growth inhibition (GI)>
Active

$$$$

Input line: MCF7 / growth inhibition (GI) / CCCn1cc(-c2ccc(O)cc2)c(=O)c2ccc(O)cc21 : value?
Output line: Active
